# testTarget: His-hMAGL (recombinant polyhistidine tagged human MAGL protein) (Homo sapiens, UniProt Q99685)
# Construct: made in house; host or cells: E. coli BL21(DE3)
# Sequence (Q99685 whole entry): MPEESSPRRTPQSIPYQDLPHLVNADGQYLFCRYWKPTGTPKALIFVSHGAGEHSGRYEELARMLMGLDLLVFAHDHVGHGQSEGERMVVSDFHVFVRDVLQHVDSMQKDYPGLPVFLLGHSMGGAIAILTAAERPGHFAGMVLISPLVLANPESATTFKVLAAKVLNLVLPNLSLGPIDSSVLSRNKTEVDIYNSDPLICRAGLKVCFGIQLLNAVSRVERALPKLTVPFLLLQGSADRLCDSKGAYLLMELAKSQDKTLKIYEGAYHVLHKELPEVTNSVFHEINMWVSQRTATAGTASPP
# testProtocol: Measurement of MAGL inhibitory activity (arachidonic acid production from 2-arachidonylglycerol, RapidFire-mass spectrometry)
# Type: biochemical
# testParameters: test compound 10 μM; MAGL inhibitory rate
measuredEndpoint: inhibition at 10 µM (%)
Give a bare numeral; the unit % is implied.

Input `C[C@]1(OC(=O)N2CC3(COC(=O)N3)C2)C[C@@H](Oc2c(F)cc(F)cc2F)C1` . Output inhibition at 10 µM: 98

The compound listed as `Cc1ccc(OC[C@H]2C[C@@H](OC(=O)N3CC4(COC(=O)N4)C3)C2)c(F)c1` has a reported inhibition at 10 µM of 101

Per the records, this compound ( `O=C1NC2(CO1)CN(C(=O)O[C@H]1C[C@@H](COc3ccc(Cl)cc3F)C1)C2` ) has inhibition at 10 µM equal to 103

So for `O=C1NC2(CO1)CN(C(=O)OC[C@H]1C[C@H](Oc3ccc(C(F)(F)F)cc3Cl)C1)C2` , the logged inhibition at 10 µM turned out to be 100

// `C[C@]1(OC(=O)N2CC3(COC(=O)N3)C2)C[C@H](OCc2ccccc2)C1` : inhibition at 10 µM value = 99

According to the records, this compound `O=C1NC2(CO1)CN(C(=O)O[C@H]1C[C@@H](Oc3cc(F)c(F)cc3F)C1)C2` displays inhibition at 10 µM of 100

Sure, the documented inhibition at 10 µM for `O=C1NC2(CO1)CN(C(=O)O[C@H]1C[C@@H](OCc3cc(F)c(F)cc3F)C1)C2` is 100

Reported inhibition at 10 µM of `O=C1NC2(CO1)CN(C(=O)O[C@H]1C[C@@H](COCc3c(F)cc(F)cc3F)C1)C2` : 101

These measurements were taken from patent US11274101B2.
